Where do these numbers come from? They come from patent US6872805B2.

- System: HCV replicon in Huh7 cells
- measurement-notes: HCV replicon cell-based assay
- Set-up: species or system HCV strain 1B
- experimental-context: Hepatitis C virus, Huh-7, 96 h; HCV replicon, Huh7 cells, 4 days; activity ranges; read-out: EC50
- Procedure: An HCV replicon whole cell system was established as described by Lohmann V, Korner F, Koch J, Herian U, Theilmann L, Bartenschlager R., Science 285(5424):110-3 (1999). […] Huh7 cells, constitutively expressing the HCV replicon, were grown in DMEM containing 10% FCS (Fetal calf serum) and 1 mg/ml G418 (Gibco-BRL). […] The toxicity of compound (CC50) was determined by adding 1/10th volume of alamar Blue to the media incubating the cells. […]
// reported EC50 for each item listed

C=C1C[C@]1(NC(=O)[C@@H]1C[C@@H](Oc2cc(-c3ccccc3)nc3cc(OC)ccc23)CN1C(=O)C(NC(=O)OC(C)(C)C)C(C)(C)C)C(=O)NS(=O)(=O)c1cccc(C(F)(F)F)c1 (stereo partly drawn) :: < 500 nM

Challenge: Need EC50 of C=CC1C[C@]1(NC(=O)[C@@H]1C[C@@H](Oc2cc(-c3ccccc3)nc3cc(OC)ccc23)CN1C(=O)[C@H](CC(C)C)NC(=O)OC(C)(C)C)C(=O)NS(=O)(=O)C(C)C (stereo partly drawn) , thanks.
Response given: < 500 nM

Challenge: Need EC50 of C=CC1C[C@]1(NC(=O)[C@@H]1C[C@@H](Oc2cc(-c3ccccc3)nc3cc(OC)ccc23)CN1C(=O)[C@@H](NC(=O)OC(C)(C)C)C(C)(C)C)C(=O)NS(=O)(=O)CC(C)(C)C (stereo in doubt) , thanks.
Response given: < 500 nM

Challenge: Need EC50 of C=C[C@@H]1C[C@]1(NC(=O)C1CC(Oc2cc(-c3ccccc3)nc3cc(OC)ccc23)CN1C(=O)[C@@H](NC(=O)OC)C(C)(C)C)C(=O)NS(=O)(=O)C1CC1 (stereo partly drawn) , thanks.
Response given: < 50 nM

Challenge: Need EC50 of C=CCC[C@](C)(NC(=O)[C@@H]1C[C@@H](Oc2cc(-c3ccccc3)nc3cc(OC)ccc23)CN1C(=O)C(NC(=O)OC(C)(C)C)C(C)(C)C)C(=O)NS(=O)(=O)c1ccc(Cl)cc1 (stereo partly drawn) , thanks.
Response given: < 500 nM

Challenge: Need EC50 of CCC(C)[C@H](NC(=O)OC(C)(C)C)C(=O)N1C[C@H](Oc2cc(-c3ccccc3)nc3cc(OC)ccc23)C[C@H]1C(=O)NC1(C(=O)NS(=O)(=O)C2CC2)CC12CCC2 (stereo partly drawn) , thanks.
Response given: < 5000 nM
